System: SW480 P3 (ATCC #CCL228) human colon carcinoma cells
experiment description: Screening assay for enhancement of transient expression (β-galactosidase gene, liposomal transfection, 6-well plates); note: test concentration or dose not given here
Assay type: cell-based
condition details: Table 1; ratio of first order rate constants of change in expression, control vs compound
Source text: These parameters are called the “X” factor, the “G” factor, and the “K” factor. [formula] This factor reflects the extent to which a chemical compound added to a transfected cell enhances stabilizes transient expression for the first four days following transfection. […] X may be calculated similarly when the agent in question is a mixture of more than one chemical compound. […] 2. […] G factors differ from the X factor only with respect to the time period evaluated. […]
Each entry below carries its reported K Factor.
recorded metric: K Factor

- record smiles: "N[C@@H](CCC(=O)O)C(=O)O"
  recorded metric: "K Factor"
  numeric result: 2
- record smiles: "O=C(O)c1ccccc1"
  recorded metric: "K Factor"
  numeric result: 1
- record smiles: "NC(=O)NCCC[C@H](N)C(=O)O"
  recorded metric: "K Factor"
  numeric result: 1
- record smiles: "N[C@@H](Cc1ccc(O)cc1)C(=O)O"
  recorded metric: "K Factor"
  numeric result: 2
- record smiles: "O=C(O)c1cccnc1"
  recorded metric: "K Factor"
  numeric result: 1

* * *

experiment description: pH of aqueous solutions of the compounds
Type: physicochemical
condition details: stock solutions prepared in culture media diluted with deionized water

- compound: "NCC(=O)O"
  pH (H20): 7.27
- compound: "Nc1ccc(C(=O)O)cc1"
  pH (H20): 7.67
- compound: "NC(=O)SC[C@H](N)C(=O)O"
  pH (H20): 6.52
- compound: "O=S(=O)(O)CC(O)CN(CCO)CCO (centres unmarked)"
  pH (H20): 6.81
- compound: "NCCS(=O)(=O)O"
  pH (H20): 7.88
- compound: "CCCCCCc1ccc(C(=O)O)cc1"
  pH (H20): 6.13
- compound: "CCCCc1ccc(C(=O)O)cc1"
  pH (H20): 5.94
- compound: "N[C@@H](CCC(=O)N[C@@H](CS)C(=O)NCC(=O)O)C(=O)O"
  pH (H20): 3.58
- compound: "Cn1cncc1C[C@H](N)C(=O)O"
  pH (H20): 7.39
- compound: "N[C@@H](Cc1c[nH]c2ccccc12)C(=O)O"
  pH (H20): 6.25
- compound: "N[C@@H](CCC(=O)O)C(=O)O"
  pH (H20): 4.2

* * *

Test system: SW480 P3 (ATCC #CCL228) human colon carcinoma cells
experiment description: Screening assay for enhancement of transient expression (β-galactosidase gene, liposomal transfection, 6-well plates); note: test concentration or dose not given here
Format: cell-based
condition details: Table 1; ratio of first order rate constants of change in expression, control vs compound

- compound: "C[C@@H](O)[C@H](N)C(=O)O"
  K Factor: 1
- compound: "NCC(=O)O"
  K Factor: 2
- compound: "NCCC(=O)O"
  K Factor: 1
- compound: "CC(C)[C@H](N)C(=O)O"
  K Factor: 2
- compound: "NCCS(=O)(=O)O"
  K Factor: 2
- compound: "N[C@@H](CCC(=O)N[C@@H](CS)C(=O)NCC(=O)O)C(=O)O"
  K Factor: 1
- compound: "CSCC[C@H](N)C(=O)O"
  K Factor: 0
- compound: "CCOC(=O)CCCC(C)=O [ETHYL 4-ACETYLBUTYRATE]"
  K Factor: 1
- compound: "N[C@@H](CO)C(=O)O"
  K Factor: 1
- compound: "CCOC(=O)c1ccc(C(C)=O)cc1 [ETHYL 4-ACETYLBENZOATE]"
  K Factor: 1
- compound: "O=C([O-])c1ccccc1.[Na+] [SODIUM BENZOATE]"
  K Factor: 1

All values here come from patent US20030073654A1.
